# targetSystem: Recombinant human JAK1 catalytic domain (Homo sapiens (Human))
# Sequence (P23458 850-1154): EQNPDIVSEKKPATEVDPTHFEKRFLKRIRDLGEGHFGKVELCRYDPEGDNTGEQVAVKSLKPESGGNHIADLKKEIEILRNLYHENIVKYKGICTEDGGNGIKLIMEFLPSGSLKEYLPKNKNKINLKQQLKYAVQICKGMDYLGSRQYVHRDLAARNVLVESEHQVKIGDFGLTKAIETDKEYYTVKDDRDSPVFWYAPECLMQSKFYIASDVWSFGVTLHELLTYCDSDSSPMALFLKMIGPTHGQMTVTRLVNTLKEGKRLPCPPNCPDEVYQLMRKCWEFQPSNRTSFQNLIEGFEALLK
# runDescription: JAK1 inhibition assay
# Format: biochemical
# recordedConditions: semi-quantitative score
# Protocol: Plates were washed 6 times with 300 μL per well of a 75 mM phosphoric acid solution and the bottom of the plates was sealed. 40 μL/well of Microscint-20 was added, the top of the plates was sealed and readout was performed using the Topcount (Perkin Elmer). Kinase activity was calculated by subtracting counts per minute (cpm) obtained in the presence of a positive control inhibitor (10 μM staurosporine) from cpm obtained in the presence of vehicle. […]
pIC50: −log10 of the molar value.
Reported pIC50 is given for each of the following compounds.

Query: GET pIC50 | system: Recombinant human JAK1 catalytic domain (Homo sapiens (Human)) | item: "Cc1noc(C)c1COc1ccc(-c2cccc3nc(NC(=O)C4CC4)nn23)cc1"
Reply: > 7.00

Query: GET pIC50 | system: Recombinant human JAK1 catalytic domain (Homo sapiens (Human)) | item: "O=C(Nc1nc2cccc(-c3ccc(NCc4cccnc4)cc3)n2n1)C1CC1"
Reply: > 7.00

Query: GET pIC50 | system: Recombinant human JAK1 catalytic domain (Homo sapiens (Human)) | item: "O=C(Nc1nc2cccc(-c3ccc(C(=O)N4CCC(CCc5ccccc5)CC4)cc3)n2n1)C1CC1"
Reply: 6.30 to 7.00

Query: GET pIC50 | system: Recombinant human JAK1 catalytic domain (Homo sapiens (Human)) | item: "O=C(c1ccccc1)c1ccc(-c2cccc3nc(NC(=O)C4CC4)nn23)cc1"
Reply: > 7.00

Query: GET pIC50 | system: Recombinant human JAK1 catalytic domain (Homo sapiens (Human)) | item: "O=C(NCc1cccc(F)c1)c1ccc(-c2cccc3nc(NC(=O)C4CC4)nn23)cc1"
Reply: > 7.00

Query: GET pIC50 | system: Recombinant human JAK1 catalytic domain (Homo sapiens (Human)) | item: "NC(=O)c1ccc(NCc2ccc(-c3cccc4nc(NC(=O)C5CC5)nn34)cc2)cc1"
Reply: > 7.00

Query: GET pIC50 | system: Recombinant human JAK1 catalytic domain (Homo sapiens (Human)) | item: O=C(Nc1nc2cccc(-c3ccc(C(=O)N(Cc4ccc(F)cc4)CC4CCCO4)cc3)n2n1)C1CC1 (stereo not drawn)
Reply: 6.30 to 7.00

Query: GET pIC50 | system: Recombinant human JAK1 catalytic domain (Homo sapiens (Human)) | item: "O=C(Nc1cccnc1)c1ccc(-c2cccc3nc(NC(=O)C4CC4)nn23)cc1"
Reply: > 7.00

Query: GET pIC50 | system: Recombinant human JAK1 catalytic domain (Homo sapiens (Human)) | item: O=C(Nc1nc2cccc(-c3ccc(C(=O)N4CCCC(CO)C4)cc3)n2n1)C1CC1 (stereo not drawn)
Reply: > 7.00

---

# targetSystem: Recombinant human JAK1 catalytic domain (Homo sapiens (Human))
# runDescription: JAK1 inhibition assay
# Assay type: biochemical
# recordedConditions: semi-quantitative score
testReadout: IC50

>>> val("O=C(Nc1nc2cccc(-c3ccc(S(=O)(=O)NC4CC4)cc3)n2n1)C1CC1 [Compound 13]")
"< 100 nM"
>>> val("O=C(Nc1nc2cccc(-c3ccc(S(=O)(=O)Cc4cccnc4)cc3)n2n1)C1CC1 [Compound 195]")
"101 to 500 nM"
>>> val("NC(=O)C1CCCCN1C(=O)c1ccc(-c2cccc3nc(NC(=O)C4CC4)nn23)cc1 (stereo not shown) [Compound 275]")
"< 100 nM"
>>> val("O=C(Nc1ccc(-c2cccc3nc(NC(=O)C4CC4)nn23)cc1)c1cnccn1 [Compound 35]")
"101 to 500 nM"
>>> val("O=C(Nc1nc2cccc(-c3ccc(C(=O)N4CCCCC4)cc3)n2n1)C1CC1 [Compound 17]")
"< 100 nM"

Query: Please list IC50 recorded for the molecule O=C(Nc1nc2cccc(-c3ccc(CN4CCOC(c5ccccc5)C4)cc3)n2n1)C1CC1 (stereo not shown) [Compound 231]
Reply: < 100 nM

Query: Please list IC50 recorded for the molecule O=C(Nc1nc2cccc(-c3ccc(CNC4CC4)cc3)n2n1)C1CC1 [Compound 312]
Reply: 101 to 500 nM

Query: Please list IC50 recorded for the molecule CC(Oc1ccc(-c2cccc3nc(NC(=O)C4CC4)nn23)cc1)c1ccccn1 (stereo not shown) [Compound 189]
Reply: < 100 nM

Query: Please list IC50 recorded for the molecule O=C(Nc1nc2cccc(-c3ccc(OCCOc4ccc(F)cc4)cc3)n2n1)C1CC1 [Compound 115]
Reply: < 100 nM

Query: Please list IC50 recorded for the molecule O=C(Nc1nc2cccc(-c3ccc(OCCn4cccn4)cc3)n2n1)C1CC1 [Compound 98]
Reply: < 100 nM

Query: Please list IC50 recorded for the molecule N#CC1CN(c2ccc(-c3cccc4nc(NC(=O)C5CC5)nn34)cc2)C1 [Compound 288]
Reply: < 100 nM

---

# targetSystem: Recombinant human JAK2 catalytic domain (Homo sapiens (Human))
# Sequence (O60674 808-1132): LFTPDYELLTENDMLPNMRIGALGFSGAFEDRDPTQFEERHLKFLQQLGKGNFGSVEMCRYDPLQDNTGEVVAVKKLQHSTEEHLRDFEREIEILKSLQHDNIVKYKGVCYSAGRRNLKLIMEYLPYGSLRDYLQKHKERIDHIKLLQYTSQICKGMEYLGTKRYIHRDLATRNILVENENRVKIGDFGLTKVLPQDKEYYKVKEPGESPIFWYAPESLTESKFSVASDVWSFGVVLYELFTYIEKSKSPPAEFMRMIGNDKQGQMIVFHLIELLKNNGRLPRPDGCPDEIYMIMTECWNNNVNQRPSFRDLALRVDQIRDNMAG
# runDescription: JAK2 inhibition assay
# Assay type: biochemical
# recordedConditions: semi-quantitative score
Reported IC50 is given for each of the following compounds.

>>> val("O=C(Nc1nc2cccc(-c3ccc(C(=O)N4C[C@@H]5C[C@H]4CO5)cc3)n2n1)C1CC1")
"501 to 1000 nM"
>>> val("O=C(Nc1nc2cccc(-c3ccc(CN4CCC(O)CC4)cc3)n2n1)C1CC1")
"501 to 1000 nM"
>>> val("Cn1cnc(COc2ccc(-c3cccc4nc(NC(=O)C5CC5)nn34)cc2)n1")
"101 to 500 nM"
>>> val("O=C(N[C@H]1CCN(Cc2ccccc2)C1)c1ccc(-c2cccc3nc(NC(=O)C4CC4)nn23)cc1")
"101 to 500 nM"
>>> val("O=C(Nc1nc2cccc(-c3ccc(NS(=O)(=O)c4ccccc4F)cc3)n2n1)C1CC1")
"< 100 nM"

Query: Please list IC50 recorded for the compound "O=C(Nc1nc2cccc(-c3ccc(CNc4c(F)cccc4F)cc3)n2n1)C1CC1"
Reply: < 100 nM

---

# runDescription: Microsomal stability, rat liver microsomes
# Type: in vitro ADME
# recordedConditions: percentage of compound remaining after 60 minutes, 3 μM compound
# Method: 40 μL of deionised water was added to a well of a polypropylene Matrix 2D barcode labelled storage tube (Thermo Scientific) and pre-incubated at 37° C. […] The samples were analyzed on LCMS with a flow rate of 1 mL/min. […] The percentage remaining after 1 hour incubation was calculated from time 0 and was calculated as the percentage remaining. The data on microsomal stability are expressed as a percentage of the total amount of compound remaining after 60 minutes.
testReadout: Microsomal Stability Rat (%)

Study these solved cases before continuing.
>>> val("O=C(NC1CC1)c1ccc(-c2cccc3nc(NC(=O)C4CC4)nn23)cc1")
"**** (**** 76-100)"
>>> val("N#Cc1ccc(COC2CN(C(=O)c3ccc(-c4cccc5nc(NC(=O)C6CC6)nn45)cc3)C2)cc1")
"*** (*** 51-75)"
>>> val("O=C(Nc1nc2cccc(-c3ccc4c(ccn4Cc4ccccc4)c3)n2n1)C1CC1")
"* (* 0-25)"
>>> val("COc1c(F)ccc(NCc2ccc(-c3cccc4nc(NC(=O)C5CC5)nn34)cc2)c1F")
"* (* 0-25)"
>>> val("O=C(Nc1nc2cccc(-c3ccc(OCc4ccccn4)cc3)n2n1)C1CC1")
"*** (*** 51-75)"
>>> val("O=C(Nc1nc2cccc(-c3ccc(NS(=O)(=O)c4ccc(F)cc4)cc3)n2n1)C1CC1")
"** (** 26-50)"
>>> val("O=C(Nc1nc2cccc(-c3cnn(Cc4ccccc4)c3)n2n1)C1CC1")
"* (* 0-25)"
>>> val("O=C(Nc1nc[nH]n1)c1ccc(-c2cccc3nc(NC(=O)C4CC4)nn23)cc1")
"* (* 0-25)"

Query: Please list Microsomal Stability Rat (%) recorded for the compound "CN(C)CCN(Cc1ccccc1)C(=O)c1ccc(-c2cccc3nc(NC(=O)C4CC4)nn23)cc1"
Reply: * (* 0-25)

Query: Please list Microsomal Stability Rat (%) recorded for the compound "O=C(Nc1nc2cccc(-c3ccc(CNc4ccccc4F)cc3)n2n1)C1CC1"
Reply: * (* 0-25)

Query: Please list Microsomal Stability Rat (%) recorded for the compound "O=C(NCc1cccc(F)c1)c1ccc(-c2cccc3nc(NC(=O)C4CC4)nn23)cc1"
Reply: ** (** 26-50)

Query: Please list Microsomal Stability Rat (%) recorded for the compound CN(C(=O)c1ccc(-c2cccc3nc(NC(=O)C4CC4)nn23)cc1)C1CCS(=O)(=O)C1 (stereo not shown)
Reply: **** (**** 76-100)

Query: Please list Microsomal Stability Rat (%) recorded for the compound "N#CCc1ccc(OCc2ccc(-c3cccc4nc(NC(=O)C5CC5)nn34)cc2)cc1"
Reply: * (* 0-25)

Query: Please list Microsomal Stability Rat (%) recorded for the compound "CC1(C)CN(C(=O)c2ccc(-c3cccc4nc(NC(=O)C5CC5)nn34)cc2)C1"
Reply: **** (**** 76-100)

Query: Please list Microsomal Stability Rat (%) recorded for the compound "O=C(Nc1nc2cccc(-c3ccc(C(=O)N4CCC(C(F)(F)F)CC4)cc3)n2n1)C1CC1"
Reply: ** (** 26-50)

Query: Please list Microsomal Stability Rat (%) recorded for the compound "O=C(Nc1nc2cccc(-c3ccc(C(=O)N4CCCCC4)cc3)n2n1)C1CC1"
Reply: ** (** 26-50)

Query: Please list Microsomal Stability Rat (%) recorded for the compound "O=C(Nc1ccccc1)c1ccc(-c2cccc3nc(NC(=O)C4CC4)nn23)cc1"
Reply: **** (**** 76-100)

Query: Please list Microsomal Stability Rat (%) recorded for the compound "Cn1cnc(COc2ccc(-c3cccc4nc(NC(=O)C5CC5)nn34)cc2)n1"
Reply: **** (**** 76-100)

Query: Please list Microsomal Stability Rat (%) recorded for the compound "O=C(Nc1nc2cccc(-c3ccc(OCc4ccc(Cl)nc4)cc3)n2n1)C1CC1"
Reply: *** (*** 51-75)

Query: Please list Microsomal Stability Rat (%) recorded for the compound "O=C(Nc1nc2cccc(-c3ccc(Oc4ccccc4)cc3)n2n1)C1CC1"
Reply: * (* 0-25)

Query: Please list Microsomal Stability Rat (%) recorded for the compound "O=C(Nc1nc2cccc(-c3ccc(OCC4CCC4)cc3)n2n1)C1CC1"
Reply: ** (** 26-50)

Query: Please list Microsomal Stability Rat (%) recorded for the compound "O=C(Nc1nc2cccc(-c3ccc(CN4CCOCC4)cc3)n2n1)C1CC1"
Reply: ** (** 26-50)
